B1: TPR 5TU (parent)
chain: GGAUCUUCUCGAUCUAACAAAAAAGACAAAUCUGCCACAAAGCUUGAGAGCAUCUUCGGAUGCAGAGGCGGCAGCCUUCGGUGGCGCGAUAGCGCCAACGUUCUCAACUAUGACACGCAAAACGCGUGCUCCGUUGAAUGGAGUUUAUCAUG

- Variants of: B1
- TEST_DESCRIPTION: polymerase ribozyme fitness, log enrichment relative to wild type (log ratio); higher = more active; in vitro selection for triplet polymerase activity
Fewer inactive variants are shown than the library holds.
QUANTITY_MEASURED: polymerase ribozyme fitness (log ratio)

Exercise: Item C85A C108U U135A U144C : provide polymerase ribozyme fitness (log ratio)
Key: -4.17

Exercise: Input U4A C57A C75G U134G , output reported polymerase ribozyme fitness (log ratio).
Key: ≤ -4.2

Exercise: // fetch polymerase ribozyme fitness (log ratio) given entry A60C U148G A150U
Key: ≤ -4.2

Exercise: Read off the recorded polymerase ribozyme fitness (log ratio) for A30U A47C G50A C54G G92C C123G
Key: ≤ -4.2

Exercise: Supply measured polymerase ribozyme fitness (log ratio) of A52C C116G in your reply.
Key: -1.21

Exercise: Identify the reported polymerase ribozyme fitness (log ratio) for the following entry. C96A U130C
Key: 0.457

Exercise: Please look at this variant and report its polymerase ribozyme fitness (log ratio): C10U A17U A41C G50C G84A
Key: ≤ -4.2

Exercise: Give the value of polymerase ribozyme fitness (log ratio) reported for the following: G84A A142C
Key: -1.65

Exercise: Name the recorded polymerase ribozyme fitness (log ratio) of the variant listed here: A41G G42A G48C C93A A106C U109C A137C
Key: ≤ -4.2

Exercise: Give polymerase ribozyme fitness (log ratio) for A40C A52C G86A A98G
Key: -2.37

Exercise: Please list polymerase ribozyme fitness (log ratio) recorded for the variant U146G A150G G152A
Key: -1.84

Exercise: Fill in polymerase ribozyme fitness (log ratio) for record A22C A24G A52G G68U
Key: ≤ -4.2

Exercise: Indicate its recorded polymerase ribozyme fitness (log ratio); the variant in question is U82A A106G C123G U148G
Key: -4.03

Exercise: Entry A23G A91U G140C needs its polymerase ribozyme fitness (log ratio) filled in; supply it.
Key: ≤ -4.2

Exercise: State its polymerase ribozyme fitness (log ratio) for this variant: A30C C85U
Key: -4.09

Exercise: Quote polymerase ribozyme fitness (log ratio) reported for A26G U44A C54U C87A C99U U111G G143U please.
Key: ≤ -4.2

Exercise: Determine its reported polymerase ribozyme fitness (log ratio): C27G A29C C51A A73U G83A A97U U151A
Key: ≤ -4.2

Exercise: Please give the documented polymerase ribozyme fitness (log ratio) of C8G C10A A30C U56A C57G C87U U102G G143C
Key: ≤ -4.2

Exercise: Give the value of polymerase ribozyme fitness (log ratio) reported for the following: A28C U55A C75G
Key: ≤ -4.2

Exercise: Quick one: give measured polymerase ribozyme fitness (log ratio) for C14U C87U C99U U101G A137C U145G
Key: ≤ -4.2

Exercise: Could you please provide reported polymerase ribozyme fitness (log ratio) for A24C U53A U55A A98U G126A C149G ? Thanks!
Key: ≤ -4.2

Exercise: Give the value of polymerase ribozyme fitness (log ratio) reported for the following: G81A G140C
Key: -2.67

Exercise: Return the recorded polymerase ribozyme fitness (log ratio) value; entry: U33G A47C U56A A73G G83U C99A
Key: -4.05

Exercise: Return polymerase ribozyme fitness (log ratio) (reported value) for this variant: G25C G83C C87G A91G
Key: ≤ -4.2

Exercise: State its polymerase ribozyme fitness (log ratio) for this variant: G48A C57A U144G
Key: 0.472

Exercise: Look up polymerase ribozyme fitness (log ratio) of C8A U55A A66C G67U U77A C99U C108U G133C G136A and report it.
Key: ≤ -4.2

Exercise: Indicate the recorded polymerase ribozyme fitness (log ratio) value for this variant: U45A G84A A115C
Key: -3.88

Exercise: Answer with reported polymerase ribozyme fitness (log ratio) of A23G G25C G50C C57A G58U C85U U144C
Key: ≤ -4.2

Exercise: Tell us which polymerase ribozyme fitness (log ratio) value is on record for G84C G92C A106U C149U
Key: ≤ -4.2

Exercise: Please give measured polymerase ribozyme fitness (log ratio) of the following entry: A41G A47U C51U A52C G88A G136U
Key: ≤ -4.2

Exercise: Return polymerase ribozyme fitness (log ratio) for the following variant: A17G C27A C35G C75A G86C A142G
Key: ≤ -4.2

Exercise: Specify measured polymerase ribozyme fitness (log ratio) for G62C A113U G117A A137C .
Key: ≤ -4.2

Exercise: Give recorded polymerase ribozyme fitness (log ratio). A39U U55G U82C C85U U146C
Key: -2.49

Exercise: Annotate the variant U53A G81C C87U C123A with its measured polymerase ribozyme fitness (log ratio).
Key: -1.74

Exercise: Return polymerase ribozyme fitness (log ratio) for the following variant: U15C A26C C36U G84A A147U
Key: -3.47

Exercise: Supply measured polymerase ribozyme fitness (log ratio) of A3G C8G A30G G48C A64C C87G A137G in your reply.
Key: ≤ -4.2

Exercise: Provide measured polymerase ribozyme fitness (log ratio) value, entry: A60C A89C G94A
Key: -1.69

Exercise: // fetch polymerase ribozyme fitness (log ratio) given entry A41C C54A U56A A73U A89U U101G A115C C129G U134A
Key: ≤ -4.2

Exercise: Indicate the recorded polymerase ribozyme fitness (log ratio) value for this variant: C69A G83A G143U
Key: -3.59

Exercise: Item U55A A115U : provide polymerase ribozyme fitness (log ratio)
Key: -1.89

Exercise: Write down polymerase ribozyme fitness (log ratio) measured for item A47C G86A C149U
Key: -1.64

Exercise: Using the record for U13C G94A G141U , state its measured polymerase ribozyme fitness (log ratio).
Key: 0.369

Exercise: Please report polymerase ribozyme fitness (log ratio) for the following variant: A19U A49G C57A A60U C116U
Key: -2.27

Exercise: Give the reported value of polymerase ribozyme fitness (log ratio) for this record: U53A A150C
Key: -3.56

Exercise: Indicate its recorded polymerase ribozyme fitness (log ratio); the variant in question is A49G G50A G140U
Key: -3.96

Exercise: Determine from records and report polymerase ribozyme fitness (log ratio) for A24C G62C G86U U102C
Key: ≤ -4.2
